Would you kindly list composite z-score for each of these compounds?
Assay: probe aCHRDL2 binding to arrayed compounds – biochemical, biotinylated probe, 635/667 nm fluorescence, primary screen (AID 1100)
Conditions: small-molecule microarray, higher = more signal

Worked examples follow.
O=C(N1CCOCC1)[C@@]1(Cc2ccccc2)COC(c2ccc(OCCCO)cc2)=N1
0.84
COc1cc(C(O)C2C=CC3C(=O)N(c4ccccc4)C(=O)C3N2Nc2ccccc2)cc(OC)c1OC (stereo not drawn)
1.13
CO[C@H]1O[C@H](CO)[C@@H](OC(=O)Nc2ccc3c(c2)OCO3)[C@H](OC(=O)Nc2ccccc2-c2ccccc2)[C@H]1OC(=O)Nc1ccccc1-c1ccccc1
0.591

// for each compound below, give its composite z-score
1. CC(C)c1nc2cc(Br)ccc2c(=O)o1
2. COc1ccc(C(=O)Nc2ccc(CN3C(=O)[C@@]4(O[C@@H](CCn5cc(CCO)nn5)[C@H]([Si](C)(C)c5ccc(OC)cc5)[C@H]4C)c4ccccc43)cc2)cc1
3. C=C(CCCC)/C(=C/C[C@H](OC(C)=O)c1cccc(OCCO)c1)c1cnc2ccccc2c1
4. CCOC(=O)C1=C[C@@H](C(C)(C)C)N(S(=O)(=O)c2ccc(C)cc2)[C@H]1c1ccc(C#N)cc1
5. COCCOC(=O)N1C(=O)[C@@]2(c3cc(C#Cc4ccc(OC)cc4)ccc31)[C@H](c1ccc(OCCO)cc1)N1[C@H](c3ccccc3)[C@H](c3ccccc3)OC(=O)[C@H]1[C@@H]2C(=O)NC[C@H](O)c1ccccc1

1. -0.123
2. 0.559
3. -0.0497
4. 0.113
5. 0.537

---

Test: viability profiling in MM1S myeloma cells – cell-based, resazurin fluorescence, basal, 24 h, PK04 Diversity Set, profiling panel (AID 1174);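 note: MM1S multiple myeloma cell line; test concentration not given here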
Settings: higher = more signal, called active from +8 up or from −8 down
observable: z-score
Answers are plain numbers.

These solved cases illustrate the format of a correct answer.
O=C1O[C@H](c2ccccc2)[C@H](c2ccccc2)N2[C@H]1[C@@H](C(=O)O)[C@]1(C(=O)Nc3ccc(C#CCCO)cc31)[C@H]2c1ccc(OCCO)cc1
0.686
COc1ccc([Si](C)(C)[C@@H]2[C@@H](CC(=O)N3CCC[C@H]3CO)O[C@]3(C(=O)N(Cc4cccc(N5CCCCC5=O)c4)c4ccccc43)[C@H]2C)cc1
-2
CN(C)C(=O)[C@@]1(Cc2ccccc2CN=[N+]=[N-])COC(c2ccc(OCCCO)cc2)=N1
-1.19

# return z-score for each item in the list
1. CC(C)N1C(=O)c2ccccc2[C@@H](C(=O)NCC(F)(F)F)[C@@H]1c1ccc(CO)cc1
2. COc1ccc(C(O)C2C=CC3C(=O)NC(=O)C3N2Nc2ccc(Cl)cc2Cl)c2ccccc12 (stereo unspecified)
3. CC1CC/C=C\[C@H]2OC34C=CCN(Cc5ccccc5)C(=O)[C@H]3N(CCCCCCO)C(=O)[C@@H]4C2C(=O)O1 (stereo partly specified)

1: 0.0516; 2: -0.423; 3: 0.507

---

Molecular target: Fibroblast growth factor 2 (Homo sapiens) (UniProt P09038)
Sequence (P09038 whole entry, looked up): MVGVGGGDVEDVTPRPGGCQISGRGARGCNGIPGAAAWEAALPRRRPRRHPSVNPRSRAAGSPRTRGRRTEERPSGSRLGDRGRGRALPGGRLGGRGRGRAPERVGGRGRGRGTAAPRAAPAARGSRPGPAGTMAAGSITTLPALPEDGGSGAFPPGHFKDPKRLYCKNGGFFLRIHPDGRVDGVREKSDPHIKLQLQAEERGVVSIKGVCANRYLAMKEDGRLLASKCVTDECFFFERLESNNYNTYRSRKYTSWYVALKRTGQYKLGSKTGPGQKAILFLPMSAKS
Assay: basic fibroblast growth factor binding to printed compounds – biochemical, small-molecule microarray, 635/667 nm fluorescence, primary screen (AID 1133)
Settings: FGF2, fluorescence 635/667, higher = more signal
So I've got a bunch of compounds here, and I need their composite z-score values.
Numbers only.

COCCOC(=O)N1C(=O)[C@@]2(c3ccccc31)[C@H](c1ccc(O)cc1)N1[C@H](c3ccccc3)[C@H](c3ccccc3)OC(=O)[C@H]1[C@@H]2C(=O)N1CCCCCCC1
1.74
CC1CC/C=C\[C@H]2OC34C=CCN(Cc5ccccc5)C(=O)[C@H]3N(CCCCCCO)C(=O)[C@@H]4C2C(=O)O1 (stereo partly drawn)
-0.808

Could you now consider this next compound?
Item COc1ccc(CCNC(=O)[C@@H]2c3ccccc3C(=O)N(Cc3ccccc3OC)[C@H]2c2ccc(CO)cc2)cc1 has what recorded composite z-score?
1.02

---

Experiment: compound effects on hepatocellular carcinoma cell viability – HepG2, calcein-AM fluorescence, 48 h, basal, profiling panel (AID 1164); note: test concentration not given here
Conditions: higher = more signal
For each of the compounds below, state its z-score.
Numbers only.

Reference set, count: 2
Cc1ccc(F)cc1S(=O)(=O)N[C@H]1CCN(Cc2ccc(OC(C)C)cc2)C1
-0.7
COC(=O)[C@@]1(Cc2ccccc2)N=C(c2ccc(OCCCO)cc2)O[C@H]1c1ccccc1CN=[N+]=[N-]
-5.45

Report z-score for each item below.
1. COc1ccc([Si](C)(C)[C@H]2[C@H](CC(=O)N3Cc4ccccc4C[C@H]3CO)O[C@@]3(C(=O)N(c4ccccc4)c4ccccc43)[C@@H]2C)cc1
2. O=C(NCc1ccc(F)cc1)[C@H]1C[C@H]2C(=O)N3CCC[C@H]3C(=O)N2[C@H]1c1ccc(O)cc1

1: -0.755; 2: -0.647

---

Test: binders from COS7 lysate, DM2A8 probe, primary screen, torsin A project, cell lysate, small-molecule microarray, fluorescence 635/667 (AID 1065)
Settings: higher = more signal, COS7 lysate expressing mutant human TOR1A
observable: composite z-score

Some molecules with known composite z-score results, for comparison:
CC(C)OC(=O)CC(=O)CC(O)c1cccc([N+](=O)[O-])c1 (stereo unspecified)
1.22
CCCC=C(CCC)[C@@H](NC(=O)OCC(C)C)c1ccc(C(=O)OC)cc1
0.477
CC(C)C[C@@H]1NC(=O)[C@@H]2C[C@H](C(=O)NCCCCCCNC(=O)CS)[C@H](c3cccc(OCCO)c3)N2C1=O
1.05
Cc1ccc(C(C)CC(O)C2C=CC3C(=O)N(C)C(=O)C3N2Nc2ccccc2)o1 (stereo unspecified)
0.0897
O=C1NC(=O)C2C1C=CC(C(O)c1ccc(B(O)O)cc1)N2Nc1ccc(Cl)cc1Cl (stereo unspecified)
-0.397

Now consider a different molecule.
Look up composite z-score for this molecule: C=CCC(OC(C)=O)[C@@H]1[C@@H](N(Cc2cc3ccccc3o2)C(=O)c2cccc3ccccc23)c2cc(OCCCO)ccc2N1C(=O)c1ccc2ccccc2n1 (stereo partly specified)
0.27

---

I'd appreciate it if you could supply z-score values for the items below.
Assay: plasmodial surface anion channel blockers, osmotic lysis – cell-based, P. falciparum Indochina, OD700, 1 h, primary screen (AID 1154)
Details: P. falciparum Indochina infected RBC osmotic lysis, higher = more signal, called active from +8 up or from −8 down
Numbers only.

CO[C@H]1O[C@H](CO)[C@@H](OC(=O)Nc2ccccc2-c2ccccc2)[C@H](OC(=O)Nc2ccccc2)[C@H]1OC(=O)Nc1ccccc1
2.62
C=C(COC)C(=O)CC[C@H](OC(=O)c1cccnc1)c1ccc(OCCO)cc1
9.54
COC(=O)[C@@]1(Cc2ccc(OC)cc2)[C@H]2c3cc(C(=O)N4CCCC4)n(Cc4ccc(Cl)c(C(F)(F)F)c4)c3C[C@H]2CN1C(=O)c1ccccc1
1.24
C=CCOC(=O)[C@H]1[C@@H]2C(=O)O[C@@H](c3ccccc3)[C@@H](c3ccccc3)N2[C@@H](c2ccc(OCCOC(=O)[C@@H]3C[C@@H]4C(=O)N[C@@H](CCCCNC(C)=O)C(=O)N4[C@@H]3c3cccc(OCCO)c3)cc2)[C@]12C(=O)Nc1ccccc12
3.6

May I ask what z-score has been recorded for CC[C@@H]1C=C(C(=O)O)[C@H](c2ccc(OC)cc2)N1S(=O)(=O)c1ccc(C)cc1 ?
0.785

---

Test system: Human papillomavirus type 1a E7 protein (residues 1-88)
Assay: HPV1a E7 small-molecule binders, primary screen, biochemical, small-molecule microarray, residues 1-88, 635 nm (AID 1129)
Conditions: small-molecule microarray binding, fluorescence 635 nm; higher = more signal
Tick Criterion met if composite z-score is 1 or greater. Tick Criterion not met if composite z-score is less than 1.

O=C1C[C@@](C(=O)O)(c2ccc([N+](=O)[O-])cc2)[C@@H](c2ccc(CO)cc2)N1C1CCCCC1
Criterion met
C[C@]1(C(=O)O)c2ccccc2C(=O)N(Cc2cc(F)cc(C(F)(F)F)c2)[C@H]1c1ccc(CO)cc1
Criterion not met
COCCOC(=O)N1C(=O)[C@@]2(c3cc(C#CCCO)ccc31)[C@H](C(N)=O)[C@H]1C(=O)O[C@H](c3ccccc3)[C@H](c3ccccc3)N1[C@@H]2c1ccccc1OCCO
Criterion met

Has [N-]=[N+]=Nc1ccccc1[C@@H]1OC(c2ccc(OCCCO)cc2)=N[C@]1(CCS(=O)(=O)c1ccccc1)C(=O)NCC(O)CO (stereo partly drawn) a recorded composite z-score greater than or equal to 1?
Criterion not met

Item CCCCC(=C=CC[C@H](O)c1ccc(CO)o1)CCO with composite z-score of 1 or above?
Criterion not met

Threshold query (composite z-score >= 1) on [N-]=[N+]=Nc1ccccc1C[C@@]1(C(=O)NCc2ccccc2)N=C(c2ccc(OCCCO)cc2)O[C@@H]1c1ccccc1N=[N+]=[N-]
Criterion met

---

Test: probe aLAP1 signal on lysate-treated microarray – cell lysate, small-molecule microarray, COS7 lysate, primary screen (AID 1124);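 note: lysate comes from COS7 cells expressing LAP1 and is applied at 0.3 µg/mL; score merges spot fluorescence near 667 nm with signal-to-noise over triplicate slides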
Details: probe aLAP1, fluorescence, higher = more signal
Could you please report measured composite z-score for the items listed next?
One number for each entry.

Example cases with answers are listed next.
CCCCCCc1nc(Cc2cc(OC)c(OC)c(OC)c2)cc2c1[Si](C(C)C)(C(C)C)O[C@H]2c1ccccc1
-0.589
COc1ccc(CCNC(=O)[C@@H]2c3ccccc3C(=O)N(Cc3ccccc3OC)[C@H]2c2ccc(CO)cc2)cc1
0.886
COc1ccc([Si](C)(C)[C@@H]2[C@@H](CC(=O)N3Cc4ccccc4C[C@H]3CO)O[C@]3(C(=O)N(Cc4ccc(N5CCOC5=O)cc4)c4ccccc43)[C@H]2C)cc1
0.313
Cc1ccc(S[C@]2(C(=O)NCCCN(C)C)CC(=O)N(C3Cc4ccccc4C3)[C@@H]2c2ccc(CO)cc2I)cc1
-0.312
C=CCNC(=O)[C@H]1[C@@H]2C(=O)O[C@@H](c3ccccc3)[C@@H](c3ccccc3)N2[C@@H](c2ccccc2OCCO)[C@]12C(=O)N(C(=O)OCCOC)c1ccc(C#Cc3ccc(OC)cc3)cc12
1.1
COCCCNC(=O)[C@@]1(Sc2ccc(C)cc2)CC(=O)N(Cc2ccccc2C(F)(F)F)[C@@H]1c1ccc(CO)cc1I
0.295

Give one value of composite z-score per listed molecule.
1. C=CCOC(=O)[C@H]1[C@@H]2C(=O)O[C@@H](c3ccccc3)[C@@H](c3ccccc3)N2[C@@H](c2ccc(OCCOC(=O)[C@@H]3C[C@@H]4C(=O)N[C@@H](CCCC[N+](C)(C)C)C(=O)N4[C@@H]3c3ccc(O)cc3)cc2)[C@]12C(=O)Nc1ccc(I)cc12
2. COC(=O)[C@@]1(Cc2ccccc2)[C@H]2c3cc(C(=O)N(C)C)n(CCO)c3C[C@H]2CN1C(=O)c1ccccc1
3. CC1CC/C=C\[C@H]2OC34C=CCN(c5ccc(Cl)cc5)C(=O)[C@H]3N(CCCCCCO)C(=O)[C@]4(C)C2C(=O)O1 (some centres undefined)

1: 0.517; 2: 0.877; 3: -0.17
